Recorded values, source patent US20120142098A1.

Molecular target: T1, human TLR4/MD2 complex expressed on the cell surface (human, UniProt O00206 24-839; Q9Y6Y9 19-160)
T1 construct: also called CHO TLR4/MD2 transfectants
T1 sequence (O00206 24-839 limits assumed, chain 1 of 2): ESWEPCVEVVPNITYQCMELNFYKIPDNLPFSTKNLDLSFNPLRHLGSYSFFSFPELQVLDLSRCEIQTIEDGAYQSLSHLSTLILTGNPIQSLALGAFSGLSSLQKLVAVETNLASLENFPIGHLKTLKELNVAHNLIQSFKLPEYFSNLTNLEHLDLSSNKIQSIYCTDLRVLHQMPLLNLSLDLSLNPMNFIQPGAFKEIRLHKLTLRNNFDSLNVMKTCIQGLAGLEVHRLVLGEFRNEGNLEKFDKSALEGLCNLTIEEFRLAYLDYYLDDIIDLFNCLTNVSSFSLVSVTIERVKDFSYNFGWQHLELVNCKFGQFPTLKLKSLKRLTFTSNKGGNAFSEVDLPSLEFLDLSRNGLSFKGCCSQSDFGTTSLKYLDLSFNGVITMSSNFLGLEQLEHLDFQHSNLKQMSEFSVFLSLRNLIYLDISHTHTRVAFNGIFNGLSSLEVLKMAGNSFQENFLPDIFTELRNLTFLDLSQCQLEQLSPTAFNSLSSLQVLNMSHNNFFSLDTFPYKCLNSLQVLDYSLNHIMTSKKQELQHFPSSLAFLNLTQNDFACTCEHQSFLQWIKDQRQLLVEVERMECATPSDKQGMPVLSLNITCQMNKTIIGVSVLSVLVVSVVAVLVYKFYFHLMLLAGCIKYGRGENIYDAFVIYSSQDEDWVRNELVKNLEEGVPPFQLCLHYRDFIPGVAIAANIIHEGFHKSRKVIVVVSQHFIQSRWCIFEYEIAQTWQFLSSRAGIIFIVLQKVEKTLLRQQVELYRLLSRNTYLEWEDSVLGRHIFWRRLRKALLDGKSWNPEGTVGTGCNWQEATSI
T1 sequence (Q9Y6Y9 19-160 R56G limits assumed, chain 2 of 2): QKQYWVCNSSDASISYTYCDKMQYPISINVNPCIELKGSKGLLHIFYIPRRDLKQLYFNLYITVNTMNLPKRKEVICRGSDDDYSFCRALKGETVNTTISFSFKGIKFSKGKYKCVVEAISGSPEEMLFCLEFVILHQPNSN
Assay: FACS on CHO stable cell line expressing human TLR4/MD2

Binder	binding result
chimeric IgG1 15C1 mutant # H (NKAF at EU positions 325 to 328) (antibody, V domains shown, Positions are in EU numbering; not shown: human IgG1 heavy chain constant region; human Kappa light chain constant region) VH: DVQLQESGPDLIQPSQSLSLTCTVTGYSITGGYSWHWIRQFPGNKLEWMGYIHYSGYTDFNPSLKTRISITRDTSKNQFFLQLNSVTTEDTATYYCARKDPSDGFPYWGQGTLVTVSA VL: DIVMTQSPATLSVTPGDRVSLSCRASQSISDHLHWYQQKSHESPRLLIKYASHAISGIPSRFSGSGSGTDFTLSIKSVEPEDIGVYYCQNGHSFPLTFGAGTKLELK	binds
chimeric IgG1 15C1 mutant # D (SAAL at EU positions 325 to 328) (antibody, V domains shown, Positions are in EU numbering; not shown: human IgG1 heavy chain constant region; human Kappa light chain constant region) VH: DVQLQESGPDLIQPSQSLSLTCTVTGYSITGGYSWHWIRQFPGNKLEWMGYIHYSGYTDFNPSLKTRISITRDTSKNQFFLQLNSVTTEDTATYYCARKDPSDGFPYWGQGTLVTVSA VL: DIVMTQSPATLSVTPGDRVSLSCRASQSISDHLHWYQQKSHESPRLLIKYASHAISGIPSRFSGSGSGTDFTLSIKSVEPEDIGVYYCQNGHSFPLTFGAGTKLELK	binds
chimeric IgG1 15C1 mutant # F (SKAF at EU positions 325 to 328) (antibody, V domains shown, Positions are in EU numbering; not shown: human IgG1 heavy chain constant region; human Kappa light chain constant region) VH: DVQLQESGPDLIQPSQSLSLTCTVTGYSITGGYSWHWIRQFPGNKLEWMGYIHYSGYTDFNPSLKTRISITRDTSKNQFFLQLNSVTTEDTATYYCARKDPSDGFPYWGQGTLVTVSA VL: DIVMTQSPATLSVTPGDRVSLSCRASQSISDHLHWYQQKSHESPRLLIKYASHAISGIPSRFSGSGSGTDFTLSIKSVEPEDIGVYYCQNGHSFPLTFGAGTKLELK	binds
